Recorded log10(IC50) values for a group of molecules are listed next.
test system: HCV replicon 1AY93H; test: microbe, parasite or virus in culture; format: cell-based, Hepatitis C virus (HCV); conditions: read-out: 1A Y93H IC50; replicon 1AY93H; Replicon Assay A
Quantity: log10(IC50) (log10 of the value in nM)

# Molecule, Quantity, Data Value
measured = [
    ("COC(=O)NC(C(=O)N1CCC[C@H]1c1ncc(-c2ccc3c(c2)cc2n3C(c3cc4ccccc4s3)Oc3cc(-c4cnc([C@@H]5CCCN5C(=O)[C@@H](NC(=O)OC)C5CCOCC5)[nH]4)cc(F)c3-2)[nH]1)C(C)(C)F (single isomer, unassigned) [Compound 185]", "log10(IC50)", 0.38),
    ("COC(=O)NC(C(=O)N1CCC[C@H]1c1ncc(-c2ccc3c(c2)cc2n3C(c3ccc(C4CC4)s3)Oc3cc(-c4cnc([C@@H]5CCCN5C(=O)[C@@H](NC(=O)OC)C(C)C)[nH]4)cc(F)c3-2)[nH]1)C1CCOC(C)(C)C1 (single isomer, unassigned) [Compound 223]", "log10(IC50)", -0.62),
    ("CCc1ccc(C2Oc3cc(-c4c[nH]c([C@@H]5CCCN5C(=O)[C@@H](NC(=O)OC)C(C)C)n4)ccc3-c3cc4c(F)c(-c5c[nH]c([C@@H]6CCCN6C(=O)C(NC(=O)OC)C6C[C@@H](C)O[C@@H](C)C6)n5)ccc4n32)s1 (single isomer, unassigned) [Compound 361]", "log10(IC50)", -0.86),
    ("COC(=O)NC(C(=O)N1CCC[C@H]1c1ncc(-c2ccc3c(c2)cc2n3C(c3ccc(C4CC4)s3)Oc3cc(-c4cnc([C@@H]5CCCN5C(=O)[C@@H](NC(=O)OC)C(C)C)[nH]4)cc(F)c3-2)[nH]1)C1CCO[C@H](C)C1 (single isomer, unassigned) [Compound 137]", "log10(IC50)", -0.55),
    ("COC(=O)NC(C(=O)N1CCC[C@H]1c1ncc(-c2ccc3c(c2)cc2n3C(c3cc4ccccc4s3)Oc3cc(-c4cnc([C@@H]5CCCN5C(=O)[C@@H](NC(=O)OC)C5CCOCC5)[nH]4)cc(F)c3-2)[nH]1)C(C)(C)F (single isomer, unassigned) [Compound 184]", "log10(IC50)", -0.80),
    ("CC[C@@H]1CC(C(NC(=O)OC)C(=O)N2CCC[C@H]2c2ncc(-c3ccc4c(c3)cc3n4C(c4ccc(C5CC5)s4)Oc4cc(-c5cnc([C@@H]6CCCN6C(=O)[C@@H](NC(=O)OC)C(C)C)[nH]5)cc(F)c4-3)[nH]2)C[C@H](CC)O1 (single isomer, unassigned) [Compound 290]", "log10(IC50)", -0.72),
    ("CCc1ccc(C2Oc3cc(-c4cnc([C@@H]5CCCN5C(=O)[C@@H](NC(=O)OC)C(C)C)[nH]4)cc(F)c3-c3cc4cc(-c5cnc([C@@H]6C[C@@H](F)CN6C(=O)C(NC(=O)OC)C6CCOC(C)(C)C6)[nH]5)ccc4n32)s1 (single isomer, unassigned) [Compound 254]", "log10(IC50)", -0.92),
    ("COC(=O)NC(C(=O)N1CCC[C@H]1c1ncc(-c2ccc3c(c2)cc2n3C(c3ccc(C4CC4)s3)Oc3cc(-c4cnc([C@@H]5CCCN5C(=O)[C@@H](NC(=O)OC)C5CCOCC5)[nH]4)cc(F)c3-2)[nH]1)C(C)(C)F (single isomer, unassigned) [Compound 172]", "log10(IC50)", -2.40),
    ("COC(=O)N[C@H](C(=O)N1CCC[C@H]1c1ncc(-c2cc(F)c3c(c2)OC(c2ccc(C4CC4)s2)n2c-3c(F)c3cc(-c4cnc([C@@H]5CCCC5C(=O)[C@@H](NC(=O)OC)C5CCOCC5)[nH]4)ccc32)[nH]1)C(C)C (single isomer, unassigned) [Compound 362]", "log10(IC50)", -1.11),
    ("COC(=O)N[C@H](C(=O)N1CCC[C@H]1c1ncc(-c2cc(F)c3c(c2)OC(c2csc(C4CC4)c2)n2c-3cc3cc(-c4cnc([C@@H]5CCCN5C(=O)[C@@H](NC(=O)OC)C(C)C)[nH]4)ccc32)[nH]1)C(C)C (single isomer, unassigned) [Compound 322]", "log10(IC50)", -1.53),
    ("CCc1ccc(C2Oc3cc(-c4cnc([C@@H]5CCCN5C(=O)[C@@H](NC(=O)OC)C(C)C)[nH]4)cc(F)c3-c3cc4cc(-c5cnc([C@@H]6C[C@@H](F)CN6C(=O)C(NC(=O)OC)C6CCOC(C)(C)C6)[nH]5)ccc4n32)s1 (single isomer, unassigned) [Compound 257]", "log10(IC50)", 0.97),
    ("COC(=O)N[C@H](C(=O)N1CCC[C@H]1c1ncc(-c2cc(C)c3c(c2)OC(c2cc(C)c(C)s2)n2c-3cc3cc(-c4cnc([C@@H]5CCCN5C(=O)[C@@H](NC(=O)OC)C(C)C)[nH]4)ccc32)[nH]1)C(C)C (single isomer, unassigned) [Compound 16]", "log10(IC50)", -0.31),
    ("CCc1ccc(C2Oc3cc(-c4cnc([C@@H]5CCCN5C(=O)C(NC(=O)OC)C5CCOC(C)(C)C5)[nH]4)cc(F)c3-c3cc4cc(-c5cnc([C@@H]6CCCN6C(=O)C(NC(=O)OC)C6CCOC(C)(C)C6)[nH]5)ccc4n32)s1 (single isomer, unassigned) [Compound 292]", "log10(IC50)", -1.36),
    ("COC(=O)NC(C(=O)N1CCC[C@H]1c1ncc(-c2ccc3c(c2)cc2n3C(c3ccc(C4CC4)s3)Oc3cc(-c4cnc([C@@H]5CCCN5C(=O)[C@@H](NC(=O)OC)C(C)C)[nH]4)cc(F)c3-2)[nH]1)C1CCO[C@H](C)C1 (single isomer, unassigned) [Compound 138]", "log10(IC50)", -1.72),
]

----------
tested on: HCV replicon 1AQ30D; test: microbe, parasite or virus in culture; type: cell-based, Hepatitis C virus (HCV); conditions: replicon 1AQ30D; Replicon Assay B; read-out: 1A Q30D IC50
This section presents compounds with their documented IC50 values.

# Compound, IC50
measured = [
    ("COC(=O)N[C@H](C(=O)N1CCC[C@H]1c1ncc(-c2cc(F)c3c(c2)OC(c2ccc(C(C)C)s2)n2c-3cc3cc(-c4cnc([C@@H]5CCCN5C(=O)[C@@H](NC(=O)OC)C(C)C)[nH]4)ccc32)[nH]1)C(C)C (single isomer, unassigned) [Compound 36]", "0.19 nM"),
    ("COC(=O)N[C@H](C(=O)N1CCC[C@@H]1c1cnc(-c2cc(F)c3c(c2)OC(c2ccc(C4(O)CC4)s2)n2c-3cc3cc(-c4ncc([C@@H]5CCCN5C(=O)[C@@H](NC(=O)OC)C(C)C)[nH]4)ccc32)[nH]1)C(C)C (stereo partly shown) [Compound 61]", "0.22 nM"),
    ("COC(=O)N[C@H](C(=O)N1CCC[C@H]1c1ncc(-c2cc(F)c3c(c2)OC(c2ccc(CC4CC4)s2)n2c-3cc3cc(-c4cnc([C@@H]5CCCN5C(=O)[C@@H](NC(=O)OC)C(C)C)[nH]4)ccc32)[nH]1)C(C)C (single isomer, unassigned) [Compound 54]", "0.2 nM"),
    ("COC(=O)N[C@H](C(=O)N1CCC[C@H]1c1ncc(-c2cc(F)c3c(c2)OC(c2ccc(C(F)F)s2)n2c-3cc3cc(-c4cnc([C@@H]5CCCN5C(=O)[C@@H](NC(=O)OC)C(C)C)[nH]4)ccc32)[nH]1)C(C)C (single isomer, unassigned) [Compound 45]", "0.37 nM"),
]

----------
test system: HCV replicon 1A; assay: microbe, parasite or virus in culture; assay type: cell-based, Hepatitis C virus (HCV); conditions: HCV replicon 1A; Replicon Assay A
Below, each entry is listed alongside its reported IC50.
Quantity: IC50 (pM)

# Compound, Quantity, Data Value
rows = [
    ("COC(=O)NC(C(=O)N1CCC[C@H]1c1ncc(-c2ccc3c(c2)cc2n3C(c3ccc(CC4CC4)s3)Oc3cc(-c4cnc([C@@H]5CCCN5C(=O)[C@@H](NC(=O)OC)C(C)C)[nH]4)cc(F)c3-2)[nH]1)C1CCOC(C)(C)C1 (single isomer, unassigned) [Compound 408]", "IC50", 3.5),
    ("COC(=O)N[C@H](C(=O)N1CCC[C@H]1c1ncc(-c2cc(C)c3c(c2)OC(c2ccc(C4CC4)s2)n2c-3cc3cc(-c4cnc([C@@H]5CCCN5C(=O)[C@@H](NC(=O)OC)C(C)C)[nH]4)ccc32)[nH]1)C(C)C (single isomer, unassigned) [Compound 751]", "IC50", 3.3),
    ("COC(=O)NC(C(=O)N1CCC[C@H]1c1ncc(-c2ccc3c(c2)cc2n3C(c3ccc(C4CC4)s3)Oc3cc(-c4cnc([C@@H]5CCCN5C(=O)[C@@H](NC(=O)OC)C(C)C)[nH]4)cc(F)c3-2)[nH]1)C1CC(C)(C)OC(C)(C)C1 (single isomer, unassigned) [Compound 421]", "IC50", 2.3),
    ("COC(=O)N[C@H](C(=O)N1CCC[C@H]1c1nc(-c2ccc3c(c2)OC(c2ccc(C)s2)n2c-3cc3cc(-c4c[nH]c([C@@H]5NCCN5C(=O)[C@@H](NC(=O)OC)C(C)C)n4)ccc32)c[nH]1)C(C)C (single isomer, unassigned) [Compound 700]", "IC50", 15),
    ("COC(=O)N[C@H](C(=O)N1C2CC2C[C@H]1c1ncc(-c2cc(F)c3c(c2)OC(c2ccc(C4CC4)s2)n2c-3cc3cc(-c4cnc([C@@H]5CCCN5C(=O)[C@@H](NC(=O)OC)C5C[C@@H](C)O[C@@H](C)C5)[nH]4)ccc32)[nH]1)C(C)C (single isomer, unassigned) [Compound 556]", "IC50", 51.2),
    ("COC(=O)NC(C(=O)N1CCC[C@H]1c1ncc(-c2ccc3c(c2)cc2n3C(c3ccc(C4CCCC4)s3)Oc3cc(-c4cnc([C@@H]5CCCN5C(=O)[C@@H](NC(=O)OC)C(C)C)[nH]4)cc(F)c3-2)[nH]1)C1C[C@@H](C)O[C@@H](C)C1 (single isomer, unassigned) [Compound 658]", "IC50", 3.2),
    ("COC(=O)N[C@H](C(=O)N1CCC[C@H]1c1ncc(-c2cc(F)c3c(c2)OC(c2cc4ccccc4s2)n2c-3cc3cc(-c4cnc([C@@H]5C[C@H]6C[C@H]6N5C(=O)[C@@H](NC(=O)OC)C(C)C)[nH]4)ccc32)[nH]1)C(C)C (single isomer, unassigned) [Compound 616]", "IC50", 2.9),
    ("CCc1ccc(C2Oc3cc(-c4cnc([C@@H]5CCCN5C(=O)[C@@H](NC(=O)OC)C(C)C)[nH]4)cc(C)c3-c3cc4cc(-c5cnc([C@@H]6CCCN6C(=O)C(NC(=O)OC)C6C[C@@H](C)O[C@@H](C)C6)[nH]5)ccc4n32)s1 (single isomer, unassigned) [Compound 544]", "IC50", 8.33),
    ("COC(=O)N[C@H](C(=O)N1CCC[C@H]1c1ncc(-c2ccc3c(c2)OC(c2cc(C)c(C)s2)n2c-3cc3cc(-c4cnc([C@@H]5C[C@H]6C[C@H]6N5C(=O)[C@@H](NC(=O)OC)C(C)C)[nH]4)ccc32)[nH]1)C(C)C (single isomer, unassigned) [Compound 501]", "IC50", 24),
    ("COC(=O)N[C@H](C(=O)N1CCC[C@H]1c1ncc(-c2cc(F)c3c(c2)OC(c2cc4c(s2)CCC4)n2c-3cc3cc(-c4cnc([C@@H]5C[C@H]6C[C@H]6N5C(=O)[C@@H](NC(=O)OC)C5C[C@@H](C)O[C@@H](C)C5)[nH]4)ccc32)[nH]1)C(C)C (single isomer, unassigned) [Compound 551]", "IC50", 6.29),
    ("COC(=O)N[C@H](C(=O)N1C[C@H](F)C[C@H]1c1ncc(-c2ccc3c(c2)cc2n3C(c3cc4ccccc4s3)Oc3cc(-c4cnc([C@@H]5CCCN5C(=O)[C@@H](NC(=O)OC)C5CCOCC5)[nH]4)ccc3-2)[nH]1)C(C)C (single isomer, unassigned) [Compound 624]", "IC50", 2.1),
    ("COC(=O)NC(C(=O)N1CCC[C@H]1c1ncc(-c2ccc3c(c2)cc2n3C(c3cc4ccccc4s3)Oc3cc(-c4cnc([C@@H]5CCCN5C(=O)[C@@H](NC(=O)OC)C(C)C)[nH]4)cc(F)c3-2)[nH]1)C1C[C@@H](C)O[C@@H](C)C1 (single isomer, unassigned) [Compound 641]", "IC50", 3.3),
    ("COC(=O)NC(C(=O)N1CCC[C@H]1c1ncc(-c2ccc3c(c2)cc2n3C(c3ccc(C4CC4)s3)Oc3cc(-c4cnc([C@@H]5C[C@H]6C[C@H]6N5C(=O)[C@@H](NC(=O)OC)C(C)C)[nH]4)cc(F)c3-2)[nH]1)C1C[C@@H](C)O[C@@H](C)C1 (single isomer, unassigned) [Compound 537]", "IC50", 3.98),
    ("COC(=O)N[C@H](C(=O)N1CCC[C@H]1c1ncc(-c2cc(F)c3c(c2)OC(c2ccc(C4CCCCC4)s2)n2c-3cc3cc(-c4cnc([C@@H]5CCCN5C(=O)[C@@H](NC(=O)OC)C(C)C)[nH]4)ccc32)[nH]1)C(C)C (single isomer, unassigned) [Compound 530]", "IC50", 13.1),
]
